molecular target: radiolabelled octapeptide repeat peptide *acetyl…amide
Could you please report measured % unbound [14C] for the items listed next?
One number for each entry, in %.

INSERT INTO assay_data (binder, endpoint, measure_unit, recorded_measurement) VALUES
  ('WFPHFF (modifications not checked) [peptide 102, WFPHFF, on Toyopearl resin, free amino terminal]', '% unbound [14C]', '%', 64);

Would you be so kind as to report % unbound [14C] for each listed record?
1. VFEYIK (modifications not checked) [peptide 115, VFEYIK, on Toyopearl resin, free amino terminal]
2. SLEEYV (modifications not checked) [peptide 95, SLEEYV, on Toyopearl resin, free amino terminal]
3. HKEQGA (modifications not checked) [peptide 119, HKEQGA, on Toyopearl resin, free amino terminal]
4. LAWFWR (modifications not checked) [peptide 88, LAWFWR, on Toyopearl resin, free amino terminal]
5. YVFNWY (modifications not checked) [peptide 87, YVFNWY, on Toyopearl resin, free amino terminal]

(A)
[87, 89, 91, 90, 45]
